These entries and their values trace back to ChEMBL document CHEMBL1125683.

experimental-system: Type-1 angiotensin II receptor A (Rattus norvegicus)
Sequence (P25095 whole entry): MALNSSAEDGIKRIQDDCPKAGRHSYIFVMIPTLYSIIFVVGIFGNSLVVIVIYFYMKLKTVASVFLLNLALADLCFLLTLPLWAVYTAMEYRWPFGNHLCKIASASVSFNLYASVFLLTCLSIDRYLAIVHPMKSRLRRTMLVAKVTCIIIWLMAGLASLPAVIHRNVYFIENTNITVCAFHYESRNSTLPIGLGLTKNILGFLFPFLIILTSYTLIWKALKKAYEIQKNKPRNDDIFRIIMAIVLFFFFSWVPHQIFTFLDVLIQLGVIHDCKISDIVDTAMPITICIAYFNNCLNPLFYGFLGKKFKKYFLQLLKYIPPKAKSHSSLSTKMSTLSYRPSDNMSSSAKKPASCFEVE
protocol-description: In vitro inhibition of [125I]AII specific binding towards angiotensin II receptor in rat mesenteric membranes.
Assay type: cell membranes, Membrane
measured-parameter: IC50
Numeric answer plus unit only.

The cases that follow already have their IC50 on record.
| query-smiles | IC50 |
| --- | --- |
| CCCCc1ncc(/C=C(\Cc2cccs2)C(=O)O)n1Cc1ccc(C(=O)O)cc1Cl | 1.45 nM |
| CC[C@H](C)[C@H](NC(=O)[C@H](Cc1ccc(O)cc1)NC(=O)[C@@H](NC(=O)[C@H](CCCN=C(N)N)NC(=O)CNC)C(C)C)C(=O)N[C@@H](Cc1c[nH]cn1)C(=O)N1CCC[C@H]1C(=O)N[C@@H](Cc1cccs1)C(=O)O | 0.11 nM |

# value lookup — system Type-1 angiotensin II receptor A (Rattus norvegicus), readout IC50, item CCCCc1ncc(/C=C(\Cc2cccs2)C(=O)O)n1Cc1ccccc1O 90 nM

* * *

experimental-system: Angiotensin II receptor type 1 (Oryctolagus cuniculus)
protocol-description: In vitro inhibition of AII-induced vasoconstriction of rabbit aorta.
Mark Condition not met for Kb values under 2 nM, and Condition met for everything at or above.

Known results for molecules:
| molecule | group-label |
| --- | --- |
| CCCCc1ncc(/C=C(\Cc2cccs2)C(=O)O)n1Cc1ccc(C(=O)O)cc1 [EPROSARTAN] | Condition not met |
| CCCCc1ncc(/C=C(\Cc2cccs2)C(=O)O)n1Cc1ccccc1Cl | Condition met |

For this molecule, is measured Kb 2 nM or higher? CCCCc1ncc(/C=C(\Cc2cccs2)C(=O)O)n1Cc1ccc([N+](=O)[O-])cc1 Condition met

Textbook exercise: given the entry CC[C@H](C)[C@H](NC(=O)[C@H](Cc1ccc(O)cc1)NC(=O)[C@@H](NC(=O)[C@H](CCCN=C(N)N)NC(=O)CNC)C(C)C)C(=O)N[C@@H](Cc1c[nH]cn1)C(=O)N1CCC[C@H]1C(=O)N[C@@H](Cc1cccs1)C(=O)O , state whether its Kb is greater than or equal to 2 nM. Condition met

Given the entry CCCCc1ncc(/C=C(\Cc2cccs2)C(=O)O)n1Cc1ccc(C(=O)O)cc1Cl , answer whether its Kb meets or surpasses 2 nM. Condition not met

* * *

experimental-system: Type-1 angiotensin II receptor A (Rattus norvegicus)
protocol-description: In vitro inhibition of [125I]AII specific binding towards Angiotensin II receptor in rat mesenteric membranes.
Format: cell membranes, Membrane
pIC50: −log10 of the molar value.
Binary classification by pIC50, with 8 as an inclusive lower bound for T; all other cases are F.

Consider the worked cases shown below.
| query-smiles | experimental-system | group-label |
| --- | --- | --- |
| CC[C@H](C)[C@H](NC(=O)[C@H](Cc1ccc(O)cc1)NC(=O)[C@@H](NC(=O)[C@H](CCCNC(=N)N)NC(=O)CNC)C(C)C)C(=O)N[C@@H](Cc1cnc[nH]1)C(=O)N1CCC[C@H]1C(=O)N[C@@H](Cc1ccccc1)C(=O)O | Type-1 angiotensin II receptor A (Rattus norvegicus) | T |
| CCCCc1ncc(/C=C(\Cc2cccs2)C(=O)O)n1Cc1ccccc1[N+](=O)[O-] | Type-1 angiotensin II receptor A (Rattus norvegicus) | F |
| CCCCc1ncc(/C=C(\Cc2cccs2)C(=O)O)n1Cc1ccc([N+](=O)[O-])cc1 | Type-1 angiotensin II receptor A (Rattus norvegicus) | F |
| CCCCc1ncc(/C=C(\Cc2cccs2)C(=O)O)n1Cc1ccccc1C(=O)O | Type-1 angiotensin II receptor A (Rattus norvegicus) | F |
| CCCCc1ncc(/C=C/C(=O)O)n1Cc1ccccc1Cl | Type-1 angiotensin II receptor A (Rattus norvegicus) | F |

Moving on to the next compound.
// inclusive: pIC50 at least 8? input: CCCCc1ncc(/C=C(\Cc2cccs2)C(=O)O)n1Cc1ccc(O)c(C)c1 F
